- procedure.text: T1 and T2 relaxivity measurements at 9.4 T (400 MHz NMR)
- Assay type: physicochemical
- measurement.parameters: PBS buffer pH 7.4, 37 °C, with Gln
- Protocol: The effectiveness of a contrast agent depends on its “relaxivity”, which is measured in units of mM^−1 s^−1, and quantifies how much a given concentration of the contrast agent improves water relaxation rates. T1 and T2 relaxivities are denoted r1 and r2, respectively, and are calculated according to eqn (1):1 [drawing 1] […] Optimized 90° and 180° pulse widths were determined on the day of the experiment, and typically spanned 16‒2 0 μs (90° pulse width) and 32‒4 0 μs (180° pulse width). […]
Overview of recorded r2 (Holo) for various molecules

molecule	units.text	r2 (Holo)
[Dy(DOTA-malN)]72-A126D: swArM: Dy(DOTA-mal^N) on T72C/A126D double variant of GlnBP (conjugate, UniProt P0AEQ3 23-248, looked up, variant T72C A126D, Dy(DOTA-malN) at Cys72, swArM: Dy(DOTA-mal^N) on T72C/A126D double variant of GlnBP) Glutamine-binding periplasmic …: ADKKLVVATDTAFVPFEFKQGDKYVGFDVDLWAAIAKELKLDYELKPMDFSGIIPALQTKNVDLALAGITICDERKKAIDFSDGYYKSGLLVMVKANNNDVKSVKDLDGKVVAVKSGTGSVDYAKDNIKTKDLRQFPNIDNAYMELGTNRADAVLHDTPNILYFIKTAGNGQFKAVGDSLEAQQYGIAFPKGSDELRDKVNGALKTLRENGTYNEIYKKWFGTEPK	mM⁻¹ s⁻¹	11.7
[Gd(DOTA-malN)]72-Q183K: swArM: Gd(DOTA-mal^N) on T72C/Q183K double variant of GlnBP (conjugate, UniProt P0AEQ3 23-248, looked up, variant T72C Q183K, Gd(DOTA-malN) at Cys72, swArM: Gd(DOTA-mal^N) on T72C/Q183K double variant of GlnBP) Glutamine-binding periplasmic …: ADKKLVVATDTAFVPFEFKQGDKYVGFDVDLWAAIAKELKLDYELKPMDFSGIIPALQTKNVDLALAGITICDERKKAIDFSDGYYKSGLLVMVKANNNDVKSVKDLDGKVVAVKSGTGSVDYAKANIKTKDLRQFPNIDNAYMELGTNRADAVLHDTPNILYFIKTAGNGQFKAVGDSLEAKQYGIAFPKGSDELRDKVNGALKTLRENGTYNEIYKKWFGTEPK	mM⁻¹ s⁻¹	28.2
[Dy(DOTA-mal^N)]72-A126Y: swArM: Dy(DOTA-mal^N) on T72C/A126Y double variant of GlnBP (conjugate, UniProt P0AEQ3 23-248, looked up, variant T72C A126Y, Dy(DOTA-malN) at Cys72, swArM: Dy(DOTA-mal^N) on T72C/A126Y double variant of GlnBP) Glutamine-binding periplasmic …: ADKKLVVATDTAFVPFEFKQGDKYVGFDVDLWAAIAKELKLDYELKPMDFSGIIPALQTKNVDLALAGITICDERKKAIDFSDGYYKSGLLVMVKANNNDVKSVKDLDGKVVAVKSGTGSVDYAKYNIKTKDLRQFPNIDNAYMELGTNRADAVLHDTPNILYFIKTAGNGQFKAVGDSLEAQQYGIAFPKGSDELRDKVNGALKTLRENGTYNEIYKKWFGTEPK	mM⁻¹ s⁻¹	10.8
